Sourced from ChEMBL document CHEMBL1131511

- tested_target: Human immunodeficiency virus type 1 protease (Human immunodeficiency virus 1, UniProt Q72874)
attribute_measured: Ki (nM)
Write the number in nM without appending the unit.

Some solved entries appear below for comparison.
[[record]]
cpd_smiles = "COc1ccc(S(=O)(=O)N(CC(C)C)C[C@@H](O)[C@H](Cc2ccccc2)NC(=O)O[C@H]2CCSC2)cc1"
attribute_measured = "Ki"
endpoint_result = 2.5

[[record]]
cpd_smiles = "COc1ccc(S(=O)(=O)N(CC(C)C)C[C@@H](O)[C@H](Cc2ccccc2)NC(=O)O[C@@H]2CO[C@@H]3OCCC[C@@H]32)cc1"
attribute_measured = "Ki"
endpoint_result = 2.2

[[record]]
cpd_smiles = "CC(C)CN(C[C@@H](O)[C@H](Cc1ccccc1)NC(=O)O[C@H]1CCOC1)S(=O)(=O)c1ccc(N)cc1"
attribute_measured = "Ki"
endpoint_result = 1.6


Now, please, on to the next compound.
Ask: Item COc1ccc(S(=O)(=O)N(CC(C)C)C[C@@H](O)[C@H](Cc2ccccc2)NC(=O)O[C@H]2CCS(=O)(=O)C2)cc1 : provide Ki
Reply: 1.2
